// reported shrunken log2 fold change per item
# Tested on: Escherichia coli TOP10
# assay procedure: shrunken log2 fold change of peptide-encoding DNA abundance (4.5 h post-induction vs induction); higher = less antimicrobial activity (less host growth inhibition)
# reported conditions: time post-induction: 4.5 h; library: site-saturation at positions 5, 18, 19, 20
Give your answer as a number; write no unit.

Study these solved cases before continuing.
>  <chain sequence>
RRIRARPPRLPRPRPRPTWLPRP

>  <target>
Escherichia coli TOP10

>  <shrunken log2 fold change>
0.33

$$$$
>  <chain sequence>
RRIRNRPPRLPRPRPRPDWIPRP

>  <target>
Escherichia coli TOP10

>  <shrunken log2 fold change>
0.0186

$$$$
>  <chain sequence>
RRIRDRPPRLPRPRPRPFHQPRP

>  <target>
Escherichia coli TOP10

>  <shrunken log2 fold change>
-0.0388

$$$$

Exercise: // returns reported shrunken log2 fold change for input RRIRVRPPRLPRPRPRPSNFPRP
Key: -0.476

Exercise: May I ask what shrunken log2 fold change has been recorded for RRIRRRPPRLPRPRPRPHRDPRP ?
Key: 0.546

Exercise: # lookup: shrunken log2 fold change of RRIRMRPPRLPRPRPRPGCYPRP
Key: 0.135

Exercise: Reported shrunken log2 fold change for RRIRVRPPRLPRPRPRPTFNPRP : what is it?
Key: 0.127

Exercise: Give the measured shrunken log2 fold change of RRIRYRPPRLPRPRPRPKTTPRP .
Key: -0.0197

====

# Test system: Escherichia coli TOP10
# assay procedure: shrunken log2 fold change of peptide-encoding DNA abundance (4.5 h post-induction vs induction); higher = less antimicrobial activity (less host growth inhibition)
# reported conditions: time post-induction: 4.5 h; library: site-saturation at positions 5, 18, 19, 20
experimental endpoint: shrunken log2 fold change
Number, no unit, nothing else.

Field: example entries. Status: answers known.
>  <chain sequence>
RRIRNRPPRLPRPRPRPQMAPRP

>  <test result>
-0.23

$$$$
>  <chain sequence>
RRIRPRPPRLPRPRPRPVNKPRP

>  <test result>
-0.521

$$$$
>  <chain sequence>
RRIRRRPPRLPRPRPRPFIKPRP

>  <test result>
-0.368

$$$$
>  <chain sequence>
RRIRTRPPRLPRPRPRPVLKPRP

>  <test result>
0.209

$$$$
>  <chain sequence>
RRIRHRPPRLPRPRPRPSYEPRP

>  <test result>
-0.503

$$$$
>  <chain sequence>
RRIRWRPPRLPRPRPRPWPYPRP

>  <test result>
-0.0146

$$$$

Exercise: GET /values?readout=shrunken log2 fold change&item= RRIRSRPPRLPRPRPRPMEFPRP
Key: 0.00489

Exercise: Given the sequence RRIRYRPPRLPRPRPRPWSYPRP , what is its reported shrunken log2 fold change?
Key: -0.23

====

Each entry below carries its recorded shrunken log2 fold change.
# Test system: Escherichia coli TOP10
# assay procedure: shrunken log2 fold change of peptide-encoding DNA abundance (4.5 h post-induction vs induction); higher = less antimicrobial activity (less host growth inhibition)
# reported conditions: time post-induction: 4.5 h; library: site-saturation at positions 5, 18, 19, 20

Field: example entries. Status: answers known.
>  <chain sequence>
RRIRWRPPRLPRPRPRPCCYPRP

>  <target>
Escherichia coli TOP10

>  <shrunken log2 fold change>
-0.295

$$$$
>  <chain sequence>
RRIRDRPPRLPRPRPRPKYQPRP

>  <target>
Escherichia coli TOP10

>  <shrunken log2 fold change>
-0.452

$$$$
>  <chain sequence>
RRIRLRPPRLPRPRPRPCMDPRP

>  <target>
Escherichia coli TOP10

>  <shrunken log2 fold change>
-0.351

$$$$

Exercise: Quick check: shrunken log2 fold change of RRIRSRPPRLPRPRPRPSLAPRP ?
Key: 0.164

Exercise: Name the recorded shrunken log2 fold change for RRIRNRPPRLPRPRPRPSKHPRP .
Key: -0.545

Exercise: Entry RRIRDRPPRLPRPRPRPPTHPRP : reported shrunken log2 fold change = ?
Key: 0.21

====

# System: Escherichia coli TOP10
# assay procedure: shrunken log2 fold change of peptide-encoding DNA abundance (4.5 h post-induction vs induction); higher = less antimicrobial activity (less host growth inhibition)
# reported conditions: time post-induction: 4.5 h; library: site-saturation at positions 5, 18, 19, 20
Could you label it 1 (yes) if measured shrunken log2 fold change is -0.3 or higher, and 0 (no) otherwise?

Past entries and their recorded results:
>  <chain sequence>
RRIRDRPPRLPRPRPRPSHDPRP

>  <label>
0 (no)

$$$$
>  <chain sequence>
RRIRGRPPRLPRPRPRPAGIPRP

>  <label>
1 (yes)

$$$$
>  <chain sequence>
RRIRRRPPRLPRPRPRPVHQPRP

>  <label>
1 (yes)

$$$$

Exercise: State whether the measured shrunken log2 fold change reaches -0.3, counting equality as reaching it, for RRIRLRPPRLPRPRPRPPDLPRP
Key: 1 (yes)

Exercise: State whether the measured shrunken log2 fold change reaches -0.3, counting equality as reaching it, for RRIRHRPPRLPRPRPRPQTQPRP
Key: 1 (yes)

Exercise: Check if shrunken log2 fold change >= -0.3 (inclusive). Item: RRIRKRPPRLPRPRPRPCSWPRP
Key: 1 (yes)

Exercise: Form field: shrunken log2 fold change at least -0.3? Entry: RRIRMRPPRLPRPRPRPPQCPRP
Key: 1 (yes)

Exercise: Quick check, shrunken log2 fold change >= -0.3? RRIRFRPPRLPRPRPRPYIWPRP
Key: 0 (no)

====

# Tested on: Escherichia coli TOP10
# assay procedure: shrunken log2 fold change of peptide-encoding DNA abundance (4.5 h post-induction vs induction); higher = less antimicrobial activity (less host growth inhibition)
# reported conditions: time post-induction: 4.5 h; library: site-saturation at positions 5, 18, 19, 20
The following sequences are listed with their measured shrunken log2 fold change values.
Write the value as a bare number.

>  <chain sequence>
RRIRPRPPRLPRPRPRPAWIPRP

>  <target>
Escherichia coli TOP10

>  <shrunken log2 fold change>
0.0812

$$$$
>  <chain sequence>
RRIRKRPPRLPRPRPRPLQNPRP

>  <target>
Escherichia coli TOP10

>  <shrunken log2 fold change>
0.551

$$$$
>  <chain sequence>
RRIRSRPPRLPRPRPRPLKHPRP

>  <target>
Escherichia coli TOP10

>  <shrunken log2 fold change>
-0.39

$$$$
>  <chain sequence>
RRIRRRPPRLPRPRPRPAYDPRP

>  <target>
Escherichia coli TOP10

>  <shrunken log2 fold change>
0.0406

$$$$
>  <chain sequence>
RRIRQRPPRLPRPRPRPGIGPRP

>  <target>
Escherichia coli TOP10

>  <shrunken log2 fold change>
-0.005

$$$$
>  <chain sequence>
RRIRCRPPRLPRPRPRPGIPPRP

>  <target>
Escherichia coli TOP10

>  <shrunken log2 fold change>
-0.126

$$$$
>  <chain sequence>
RRIRIRPPRLPRPRPRPCVAPRP

>  <target>
Escherichia coli TOP10

>  <shrunken log2 fold change>
-0.288

$$$$
>  <chain sequence>
RRIRQRPPRLPRPRPRPQRCPRP

>  <target>
Escherichia coli TOP10

>  <shrunken log2 fold change>
0.0862

$$$$
>  <chain sequence>
RRIRRRPPRLPRPRPRPERTPRP

>  <target>
Escherichia coli TOP10

>  <shrunken log2 fold change>
0.232

$$$$
>  <chain sequence>
RRIRQRPPRLPRPRPRPTNHPRP

>  <target>
Escherichia coli TOP10

>  <shrunken log2 fold change>
-0.552

$$$$

Exercise: Look at this sequence and give its reported shrunken log2 fold change. RRIRFRPPRLPRPRPRPSFTPRP
Key: 0.587

Exercise: Given RRIRKRPPRLPRPRPRPVYDPRP , state its recorded shrunken log2 fold change.
Key: 0.0473

Exercise: // returns reported shrunken log2 fold change for input RRIRCRPPRLPRPRPRPDTYPRP
Key: -0.075

====

# Tested on: Escherichia coli TOP10;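 note: peptides expressed intracellularly from a pBAD plasmid library in pooled LB shake-flask culture, induced with 0.3% L-arabinose, DNA abundance read by NGS, three biological replicates, DESeq2 with apeglm shrinkage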
# assay procedure: shrunken log2 fold change of peptide-encoding DNA abundance (4.5 h post-induction vs induction); higher = less antimicrobial activity (less host growth inhibition)
# reported conditions: time post-induction: 4.5 h; library: site-saturation at positions 5, 18, 19, 20
Below, each entry is listed with its recorded shrunken log2 fold change.

Here are 6 sequences together with their reported answers.
>  <chain sequence>
RRIRKRPPRLPRPRPRPRPDPRP

>  <shrunken log2 fold change>
0.446

$$$$
>  <chain sequence>
RRIRARPPRLPRPRPRPCRSPRP

>  <shrunken log2 fold change>
-0.0342

$$$$
>  <chain sequence>
RRIRFRPPRLPRPRPRPNTWPRP

>  <shrunken log2 fold change>
-0.277

$$$$
>  <chain sequence>
RRIRSRPPRLPRPRPRPTSIPRP

>  <shrunken log2 fold change>
-0.102

$$$$
>  <chain sequence>
RRIRFRPPRLPRPRPRPLTGPRP

>  <shrunken log2 fold change>
-0.196

$$$$
>  <chain sequence>
RRIRRRPPRLPRPRPRPYFDPRP

>  <shrunken log2 fold change>
-0.823

$$$$

Exercise: Please report the recorded shrunken log2 fold change for RRIRQRPPRLPRPRPRPPFVPRP .
Key: 0.0462

Exercise: // query shrunken log2 fold change value for entry RRIRLRPPRLPRPRPRPNYMPRP
Key: -0.251

Exercise: Recorded shrunken log2 fold change of RRIRNRPPRLPRPRPRPLYGPRP , please.
Key: -0.171

Exercise: Consider the sequence shown here: RRIRPRPPRLPRPRPRPTPIPRP What is its recorded shrunken log2 fold change?
Key: 0.336

Exercise: Item under review: RRIRSRPPRLPRPRPRPYIAPRP . Reported shrunken log2 fold change?
Key: -0.917

Exercise: Entry RRIRPRPPRLPRPRPRPCLWPRP : reported shrunken log2 fold change = ?
Key: 0.0902

Exercise: Please report the recorded shrunken log2 fold change for RRIRWRPPRLPRPRPRPYHIPRP .
Key: -0.96
